Origin of measurements: paper PMC9482650

# measurementTarget: T1, APBA1_2, Q02410
# T1 sequence (Q02410 742-832, limits assumed, looked up): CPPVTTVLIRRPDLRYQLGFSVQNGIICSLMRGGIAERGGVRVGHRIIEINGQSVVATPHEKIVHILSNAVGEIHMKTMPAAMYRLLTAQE
# protocolSummary: holdup assay
# Design: key: below the threshold = too weak to quantify, mostly under pKd 3.1 to 4
# measurementContext: plain residues with an end cap or a label only (N-terminal biotin on a linker: ado-ado)
measure: pKd

Example entries begin here.
>  <binder>
QRYPGNQTTC [CCL24, O00175]

>  <pKd>
below the threshold

$$$$
>  <binder>
VKQYADVEGF [HNRNPK, P61978;P61978-2]

>  <pKd>
below the threshold

$$$$
>  <binder>
FVFESRKEIL [TBPL1, P62380]

>  <pKd>
below the threshold

$$$$
>  <binder>
WAKEKQHTRL [SLC17A1, Q14916]

>  <pKd>
below the threshold

$$$$

Let us examine a further case.
Challenge: If you can, please state the reported pKd value of PAALPESTHM [SLC9A3, P48764] .
Response given: below the threshold
